Factor VIIIa decay rate relative to wild type, FIXa (+) by entry:
Target: T1, factor VIIIa A1/A3C1C2 dimer, wild type (human, UniProt P00451 20-391; P00451 1709-2351)
T1 sequence 1: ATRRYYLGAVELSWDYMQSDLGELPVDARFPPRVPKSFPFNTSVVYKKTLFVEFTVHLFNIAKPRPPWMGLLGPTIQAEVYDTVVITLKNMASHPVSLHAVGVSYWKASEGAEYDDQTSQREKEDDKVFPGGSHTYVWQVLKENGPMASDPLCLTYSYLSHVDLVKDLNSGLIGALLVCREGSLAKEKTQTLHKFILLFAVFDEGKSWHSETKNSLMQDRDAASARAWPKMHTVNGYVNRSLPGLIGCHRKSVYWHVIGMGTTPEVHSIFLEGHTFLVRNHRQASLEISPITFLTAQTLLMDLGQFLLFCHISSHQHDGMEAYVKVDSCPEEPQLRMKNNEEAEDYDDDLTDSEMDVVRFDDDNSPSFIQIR
T1 sequence 2: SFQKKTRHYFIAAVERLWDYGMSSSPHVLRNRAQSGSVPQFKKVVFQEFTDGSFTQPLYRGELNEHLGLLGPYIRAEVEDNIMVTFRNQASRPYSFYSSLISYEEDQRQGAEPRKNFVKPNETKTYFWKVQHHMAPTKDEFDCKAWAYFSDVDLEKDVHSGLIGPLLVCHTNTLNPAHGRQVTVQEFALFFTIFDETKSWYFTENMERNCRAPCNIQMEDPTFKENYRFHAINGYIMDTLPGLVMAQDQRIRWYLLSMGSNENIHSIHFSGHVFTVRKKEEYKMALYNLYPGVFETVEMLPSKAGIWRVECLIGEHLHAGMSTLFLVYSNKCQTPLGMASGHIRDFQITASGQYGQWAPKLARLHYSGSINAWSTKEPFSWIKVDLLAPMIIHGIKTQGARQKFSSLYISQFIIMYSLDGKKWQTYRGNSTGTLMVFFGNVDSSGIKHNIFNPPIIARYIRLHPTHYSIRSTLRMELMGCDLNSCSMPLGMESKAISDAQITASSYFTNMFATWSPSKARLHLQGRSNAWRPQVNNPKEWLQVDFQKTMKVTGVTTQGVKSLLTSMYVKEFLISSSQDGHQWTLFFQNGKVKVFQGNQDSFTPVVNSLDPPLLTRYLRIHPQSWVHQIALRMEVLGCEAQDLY
Test: cell-based or functional assay

Examples with answers:
1) factor VIIIa A2 subunit, N684A (other) SVAKKHPKTWVHYIAAEEEDWDYAPLVLAPDDRSYKSQYLNNGPQRIGRKYKKVRFMAYTDETFKTREAIQHESGILGPLLYGEVGDTLLIIFKNQASRPYNIYPHGITDVRPLYSRRLPKGVKHLKDFPILPGEIFKYKWTVTVEDGPTKSDPRCLTRYYSSFVNMERDLASGLIGPLLICYKESVDQRGNQIMSDKRNVILFSVFDENRSWYLTENIQRFLPNPAGVQLEDPEFQASNIMHSINGYVFDSLQLSVCLHEVAYWYILSIGAQTDFLSVFFSGYTFKHKMVYEDTLTLFPFSGETVFMSMEAPGLWILGCHNSDFRNRGMTALLKVSSCDKNTGDYYEDSYEDISAYLLSKNNAIEPR | 36.3 relative to wild type
2) factor VIIIa A2 subunit, Y664F (other) SVAKKHPKTWVHYIAAEEEDWDYAPLVLAPDDRSYKSQYLNNGPQRIGRKYKKVRFMAYTDETFKTREAIQHESGILGPLLYGEVGDTLLIIFKNQASRPYNIYPHGITDVRPLYSRRLPKGVKHLKDFPILPGEIFKYKWTVTVEDGPTKSDPRCLTRYYSSFVNMERDLASGLIGPLLICYKESVDQRGNQIMSDKRNVILFSVFDENRSWYLTENIQRFLPNPAGVQLEDPEFQASNIMHSINGYVFDSLQLSVCLHEVAYWYILSIGAQTDFLSVFFSGYTFKHKMVFEDTLTLFPFSGETVFMSMENPGLWILGCHNSDFRNRGMTALLKVSSCDKNTGDYYEDSYEDISAYLLSKNNAIEPR | 1.31 relative to wild type
3) factor VIIIa A2 subunit, S524A (other) SVAKKHPKTWVHYIAAEEEDWDYAPLVLAPDDRSYKSQYLNNGPQRIGRKYKKVRFMAYTDETFKTREAIQHESGILGPLLYGEVGDTLLIIFKNQASRPYNIYPHGITDVRPLYSRRLPKGVKHLKDFPILPGEIFKYKWTVTVEDGPTKADPRCLTRYYSSFVNMERDLASGLIGPLLICYKESVDQRGNQIMSDKRNVILFSVFDENRSWYLTENIQRFLPNPAGVQLEDPEFQASNIMHSINGYVFDSLQLSVCLHEVAYWYILSIGAQTDFLSVFFSGYTFKHKMVYEDTLTLFPFSGETVFMSMENPGLWILGCHNSDFRNRGMTALLKVSSCDKNTGDYYEDSYEDISAYLLSKNNAIEPR | 40.4 relative to wild type

Below: the item to evaluate.
Looking for the measured Factor VIIIa decay rate relative to wild type, FIXa (+) of factor VIIIa A2 subunit, R531A (other) SVAKKHPKTWVHYIAAEEEDWDYAPLVLAPDDRSYKSQYLNNGPQRIGRKYKKVRFMAYTDETFKTREAIQHESGILGPLLYGEVGDTLLIIFKNQASRPYNIYPHGITDVRPLYSRRLPKGVKHLKDFPILPGEIFKYKWTVTVEDGPTKSDPRCLTAYYSSFVNMERDLASGLIGPLLICYKESVDQRGNQIMSDKRNVILFSVFDENRSWYLTENIQRFLPNPAGVQLEDPEFQASNIMHSINGYVFDSLQLSVCLHEVAYWYILSIGAQTDFLSVFFSGYTFKHKMVYEDTLTLFPFSGETVFMSMENPGLWILGCHNSDFRNRGMTALLKVSSCDKNTGDYYEDSYEDISAYLLSKNNAIEPR , can you help?
6.72 relative to wild type
